All figures here come from ChEMBL document CHEMBL1221313.

The following compounds are listed with their measured Ratio Ki values.
molecular target: Opioid receptor (mu and kappa) (Cavia porcellus) (UniProt P41144+P97266); test: Selectivity ratio of Ki for mu opioid receptor in guinea pig forebrain to Ki for kappa opioid receptor in guinea pig cerebellum; type: tissue-based
Sequence (P97266 whole entry, looked up, one chain of several): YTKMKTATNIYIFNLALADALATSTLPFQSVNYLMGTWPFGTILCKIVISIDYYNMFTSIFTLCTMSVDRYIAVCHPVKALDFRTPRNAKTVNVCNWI
PROPERTY_LABEL: Ratio Ki

• Cn1c(/C=C/c2ccccc2)cc2c1[C@@H]1Oc3c(O)ccc4c3[C@@]13CCN(CC1CC1)[C@H](C4)[C@]3(O)C2 = 0.5
• CCC/C=C/c1cc2c(n1C)[C@@H]1Oc3c(O)ccc4c3[C@@]13CCN(CC1CC1)[C@H](C4)[C@]3(O)C2 = 0.8
• CCCCCC(=O)/C=C/c1cc2c(n1C)[C@@H]1Oc3c(O)ccc4c3[C@@]13CCN(CC1CC1)[C@H](C4)[C@]3(O)C2 = 12
• Cn1c(CCC(=O)CCc2ccccc2)cc2c1[C@@H]1Oc3c(O)ccc4c3[C@@]13CCN(CC1CC1)[C@H](C4)[C@]3(O)C2 = 1.6
• Cn1c(/C=C/C(=O)Cc2ccccc2)cc2c1[C@@H]1Oc3c(O)ccc4c3[C@@]13CCN(CC1CC1)[C@H](C4)[C@]3(O)C2 = 5.8
• Cn1c(/C=C/C(=O)CCc2ccccc2)cc2c1[C@@H]1Oc3c(O)ccc4c3[C@@]13CCN(CC1CC1)[C@H](C4)[C@]3(O)C2 = 7.4
• Cc1occc1C(=O)/C=C/c1cc2c(n1C)[C@@H]1Oc3c(O)ccc4c3[C@@]13CCN(CC1CC1)[C@H](C4)[C@]3(O)C2 = 5.4
• Cn1c(/C=C/C(=O)c2ccccc2)cc2c1[C@@H]1Oc3c(O)ccc4c3[C@@]13CCN(CC1CC1)[C@H](C4)[C@]3(O)C2 = 8.1

----------
Each entry below carries its measured Ki, system: Kappa-type opioid receptor (Cavia porcellus, UniProt P41144).
Sequence (P41144 whole entry): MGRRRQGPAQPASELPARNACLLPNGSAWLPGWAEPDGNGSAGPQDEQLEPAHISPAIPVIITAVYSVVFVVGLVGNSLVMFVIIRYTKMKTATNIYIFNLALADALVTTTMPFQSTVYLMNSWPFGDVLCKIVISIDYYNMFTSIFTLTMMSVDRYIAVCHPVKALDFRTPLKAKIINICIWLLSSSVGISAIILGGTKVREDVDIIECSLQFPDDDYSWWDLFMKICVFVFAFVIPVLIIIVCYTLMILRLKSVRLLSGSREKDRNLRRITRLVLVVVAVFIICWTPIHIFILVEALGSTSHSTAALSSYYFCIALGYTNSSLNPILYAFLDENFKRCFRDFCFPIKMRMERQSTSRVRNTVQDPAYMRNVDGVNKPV
PROPERTY_LABEL: Ki (nM)

• Cc1occc1C(=O)/C=C/c1cc2c(n1C)[C@@H]1Oc3c(O)ccc4c3[C@@]13CCN(CC1CC1)[C@H](C4)[C@]3(O)C2 = 1.15
• Cn1c(/C=C/C(=O)Cc2ccccc2)cc2c1[C@@H]1Oc3c(O)ccc4c3[C@@]13CCN(CC1CC1)[C@H](C4)[C@]3(O)C2 = 1.13
• Cn1c(/C=C/c2ccccc2)cc2c1[C@@H]1Oc3c(O)ccc4c3[C@@]13CCN(CC1CC1)[C@H](C4)[C@]3(O)C2 = 3.79
